- Experimental Target: Sphingosine 1-phosphate receptor 3 (Homo sapiens, UniProt Q99500)
- Sequence (Q99500 whole entry): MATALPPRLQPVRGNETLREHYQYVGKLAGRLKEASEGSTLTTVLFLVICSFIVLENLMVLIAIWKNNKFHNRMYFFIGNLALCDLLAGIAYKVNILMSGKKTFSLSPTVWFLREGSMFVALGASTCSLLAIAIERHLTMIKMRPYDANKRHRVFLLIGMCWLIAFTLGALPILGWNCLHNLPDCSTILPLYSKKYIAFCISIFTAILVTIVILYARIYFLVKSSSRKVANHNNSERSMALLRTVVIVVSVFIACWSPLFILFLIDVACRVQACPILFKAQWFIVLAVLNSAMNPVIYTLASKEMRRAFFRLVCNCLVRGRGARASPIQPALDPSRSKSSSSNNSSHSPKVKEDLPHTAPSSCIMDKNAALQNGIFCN
- Assay Overview: Displacement of [33P]S1P from S1P3 expressed in CHO cells
- Type: cell-based
Some compounds, each annotated with its measured IC50.
Result Type: IC50 (µM)

compound="O=C(O)C[C@@H]1CC[C@H](c2ccc(-c3noc(-c4ccc(C5CCCC5)c(F)c4)n3)cc2)N1 (racemic)" experimental_target="Sphingosine 1-phosphate receptor 3 (Homo sapiens, UniProt Q99500)" comparison_operator== measured_value=7.6
compound="O=C(O)C[C@@H]1CC[C@H](c2ccc(-c3noc(-c4ccc([C@@H]5CCC(F)(F)C5)cc4)n3)cc2)N1 (racemic)" experimental_target="Sphingosine 1-phosphate receptor 3 (Homo sapiens, UniProt Q99500)" comparison_operator== measured_value=2.5
compound="O=C(O)C[C@@H]1CC[C@H](c2ccc(-c3noc(-c4ccc(C5CCCC5)cc4F)n3)cc2)N1 (racemic)" experimental_target="Sphingosine 1-phosphate receptor 3 (Homo sapiens, UniProt Q99500)" comparison_operator=> measured_value=10
compound="CC(C)Cc1ccc(-c2nc(-c3ccc([C@@H]4CC[C@@H](C(=O)O)N4)cc3)no2)cc1 (racemic)" experimental_target="Sphingosine 1-phosphate receptor 3 (Homo sapiens, UniProt Q99500)" comparison_operator== measured_value=10
compound="O=C(O)C[C@@H]1CC[C@H](c2ccc(-c3noc(-c4ccc([C@@H]5CCC(F)(F)C5)cc4)n3)cc2)N1 (stereo in doubt; form 1)" experimental_target="Sphingosine 1-phosphate receptor 3 (Homo sapiens, UniProt Q99500)" comparison_operator== measured_value=7.8
compound="CC(C)Cc1ccc(-c2nc(-c3ccc([C@@H]4CC[C@@H](CCC(=O)O)N4)cc3)no2)cc1 (racemic)" experimental_target="Sphingosine 1-phosphate receptor 3 (Homo sapiens, UniProt Q99500)" comparison_operator== measured_value=6.7
